Listed here: items and their measured cAMP EC50.
- System Name: T1, rat GIP receptor (rat, UniProt P43219 19-455)
- T1 sequence (looked up): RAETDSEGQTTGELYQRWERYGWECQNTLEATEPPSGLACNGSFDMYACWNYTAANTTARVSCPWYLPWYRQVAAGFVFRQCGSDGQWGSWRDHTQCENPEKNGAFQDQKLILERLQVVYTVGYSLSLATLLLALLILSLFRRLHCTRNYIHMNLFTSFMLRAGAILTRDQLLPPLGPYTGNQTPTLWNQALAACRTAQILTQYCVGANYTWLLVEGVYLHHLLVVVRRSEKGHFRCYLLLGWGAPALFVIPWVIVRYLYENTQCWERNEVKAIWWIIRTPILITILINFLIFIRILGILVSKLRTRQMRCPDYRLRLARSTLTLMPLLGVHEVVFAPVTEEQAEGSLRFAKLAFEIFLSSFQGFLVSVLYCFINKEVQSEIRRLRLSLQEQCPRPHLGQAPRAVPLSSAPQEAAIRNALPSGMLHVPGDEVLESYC
- Protocol Summary: cell-based or functional assay
Property Name: cAMP EC50 (nM)

[[record]]
binder = "IP024 (Fc fusion) YSEGTFTSDYSKLLEEEAVRLFIEWLLAGAAAGGSGSTASSGSGSATGGGGAATHTCPPCPAPEF"
property_name = "cAMP EC50"
value_units = "nM"
value = 0.047

[[record]]
binder = "IP258 (Fc fusion) YSEGTFTSDYSKLLDEEAVRLFIEWLVKGPGGGGGSGGGGSGGGGSGGGGSATHTCPPCPAPEF"
property_name = "cAMP EC50"
value_units = "nM"
value = 1.5

[[record]]
binder = "IP291 (Fc fusion) YSEGTFTSDYSKLLEEECVRLFIEWLVKGGPGGGAPPPGCGGGGGGGGGGGGGGGGGACPPC"
property_name = "cAMP EC50"
value_units = "nM"
value = 1.4

[[record]]
binder = "IP263 (Fc fusion) YSEGTFTSDYSKLLEEEAVRLFIEWLVKQPGGGGGSGGGGSGGGGSGGGGSATHTCPPCPAPEF"
property_name = "cAMP EC50"
value_units = "nM"
value = 1.1

[[record]]
binder = "IP249 (Fc fusion) YSEGTFTSDYSKLLEEEAVRLFIEWLLAQKAAAGGSGSTASSGSGSATGGGGAATHTCPPCPAPEF"
property_name = "cAMP EC50"
value_units = "nM"
value = 0.19

[[record]]
binder = "IP222 (Fc fusion) YSEGTFTSDYSKLLEEEAVRLFIEWLKNGGPSSGAPPPSAAAGGSGSTASSGSGSATGGGGAATHTCPPCPAPEF"
property_name = "cAMP EC50"
value_units = "nM"
value = 0.72

[[record]]
binder = "IP372 (Fc fusion) YSEGTFTSDYSIYLDEEAVRLFIEWLLAGGGGGGGSGGGGSGGGGSGGGGSACPPC"
property_name = "cAMP EC50"
value_units = "nM"
value = 27

[[record]]
binder = "IP328 (Fc fusion) YSEGTFTSDYSKLLEEEAVRLFIEWLLAGGGGGGGSGGGGSGGGGSGGGGSGGGGSGGGGSGGGGSGGGGSA"
property_name = "cAMP EC50"
value_units = "nM"
value = 0.17

[[record]]
binder = "IP088 (Fc fusion) YSEGTFTSDYSKLLEEEAVRLFIEWLVKGPAAAGGSGSTASSGSGSATGGGGAATHTCPPCPAPEF"
property_name = "cAMP EC50"
value_units = "nM"
value = 0.1

[[record]]
binder = "IP131 (Fc fusion) YSEGTFTSDYSKLLEEEAVRLFIEWLLAGGGGGGSGGGGSGGGGSGGGGSATHTCPPCPAPEF"
property_name = "cAMP EC50"
value_units = "nM"
value = 0.23

